Tested on: Staphylococcus aureus
EXPERIMENTAL_DETAILS: Antibacterial activity against methicillin-resistant Staphylococcus aureus A960649 at 6.25 uM after 15 to 20 hrs by CLSI protocol based microdilution assay relative to control
Assay type: functional

| SMILES_TEXT | MEASURE_UNIT | Activity |
| --- | --- | --- |
| NC[C@@H]1O[C@H](O[C@H]2[C@@H](O)[C@H](O[C@@H]3[C@@H](O)[C@H](N)C[C@H](N)[C@H]3O[C@H]3O[C@H](CN)[C@@H](O)[C@H](O)[C@H]3N)O[C@@H]2CSCCNC(=O)CCc2ccc3ccc4cccc5ccc2c3c45)[C@H](N)[C@@H](O)[C@@H]1O | % | 19 |
| NC[C@@H]1O[C@H](O[C@H]2[C@@H](O)[C@H](O[C@@H]3[C@@H](O)[C@H](N)C[C@H](N)[C@H]3O[C@H]3O[C@H](CN)[C@@H](O)[C@H](O)[C@H]3N)O[C@@H]2CNC(=O)Cc2ccc3ccc4cccc5ccc2c3c45)[C@H](N)[C@@H](O)[C@@H]1O | % | 15 |
| NC[C@@H]1O[C@H](O[C@H]2[C@@H](O)[C@H](O[C@@H]3[C@@H](O)[C@H](N)C[C@H](N)[C@H]3O[C@H]3O[C@H](CN)[C@@H](O)[C@H](O)[C@H]3N)O[C@@H]2CNC(=O)CCCc2ccc3ccc4cccc5ccc2c3c45)[C@H](N)[C@@H](O)[C@@H]1O | % | 35 |
| NC[C@@H]1O[C@H](O[C@H]2[C@@H](O)[C@H](O[C@@H]3[C@@H](O)[C@H](N)C[C@H](N)[C@H]3O[C@H]3O[C@H](CN)[C@@H](O)[C@H](O)[C@H]3N)O[C@@H]2CSCCNC(=O)CCCc2ccc3ccc4cccc5ccc2c3c45)[C@H](N)[C@@H](O)[C@@H]1O | % | 30 |

* * *

System: Ribosomal RNA A-site
EXPERIMENTAL_DETAILS: Displacement of F-NEO from Escherichia coli rRNA-A site after 10 to 20 mins by fluorescence assay
Assay type: nucleic-acid assay
pIC50: −log10 of the molar value.
REPORTED_ENDPOINT: pIC50

| MOLECULE | SYSTEM_UNDER_TEST | REPORTED_ENDPOINT | OBS_VALUE |
| --- | --- | --- | --- |
| NC[C@@H]1O[C@H](O[C@H]2[C@@H](O)[C@H](O[C@@H]3[C@@H](O)[C@H](N)C[C@H](N)[C@H]3O[C@H]3O[C@H](CN)[C@@H](O)[C@H](O)[C@H]3N)O[C@@H]2CNC(=O)CCCc2ccc3ccc4cccc5ccc2c3c45)[C@H](N)[C@@H](O)[C@@H]1O | Ribosomal RNA A-site | pIC50 | 6.77 |
| NC[C@@H]1O[C@H](O[C@H]2[C@@H](O)[C@H](O[C@@H]3[C@@H](O)[C@H](N)C[C@H](N)[C@H]3O[C@H]3O[C@H](CN)[C@@H](O)[C@H](O)[C@H]3N)O[C@@H]2CO)[C@H](N)[C@@H](O)[C@@H]1O [FRAMYCETIN] | Ribosomal RNA A-site | pIC50 | 7.06 |
| NC[C@@H]1O[C@H](O[C@H]2[C@@H](O)[C@H](O[C@@H]3[C@@H](O)[C@H](N)C[C@H](N)[C@H]3O[C@H]3O[C@H](CN)[C@@H](O)[C@H](O)[C@H]3N)O[C@@H]2CNC(=O)CCc2ccc3ccc4cccc5ccc2c3c45)[C@H](N)[C@@H](O)[C@@H]1O | Ribosomal RNA A-site | pIC50 | 6.51 |
| NC[C@@H]1O[C@H](O[C@H]2[C@@H](O)[C@H](O[C@@H]3[C@@H](O)[C@H](N)C[C@H](N)[C@H]3O[C@H]3O[C@H](CN)[C@@H](O)[C@H](O)[C@H]3N)O[C@@H]2CSCCNC(=S)NCCCCCCNC(=O)CCCc2ccc3ccc4cccc5ccc2c3c45)[C@H](N)[C@@H](O)[C@@H]1O | Ribosomal RNA A-site | pIC50 | 6.60 |
| NC[C@@H]1O[C@H](O[C@H]2[C@@H](O)[C@H](O[C@@H]3[C@@H](O)[C@H](N)C[C@H](N)[C@H]3O[C@H]3O[C@H](CN)[C@@H](O)[C@H](O)[C@H]3N)O[C@@H]2CNC(=O)Cc2ccc3ccc4cccc5ccc2c3c45)[C@H](N)[C@@H](O)[C@@H]1O | Ribosomal RNA A-site | pIC50 | 6.52 |
| NC[C@@H]1O[C@H](O[C@H]2[C@@H](O)[C@H](O[C@@H]3[C@@H](O)[C@H](N)C[C@H](N)[C@H]3O[C@H]3O[C@H](CN)[C@@H](O)[C@H](O)[C@H]3N)O[C@@H]2CSCCNC(=O)Cc2ccc3ccc4cccc5ccc2c3c45)[C@H](N)[C@@H](O)[C@@H]1O | Ribosomal RNA A-site | pIC50 | 7.02 |

* * *

Test system: Staphylococcus aureus
EXPERIMENTAL_DETAILS: Antibacterial activity against methicillin-resistant Staphylococcus aureus 33591 at 6.25 uM after 15 to 20 hrs by CLSI protocol based microdilution assay relative to control
Format: functional

| SMILES_TEXT | MEASURE_UNIT | Activity |
| --- | --- | --- |
| NC[C@@H]1O[C@H](O[C@H]2[C@@H](O)[C@H](O[C@@H]3[C@@H](O)[C@H](N)C[C@H](N)[C@H]3O[C@H]3O[C@H](CN)[C@@H](O)[C@H](O)[C@H]3N)O[C@@H]2CNC(=O)Cc2ccc3ccc4cccc5ccc2c3c45)[C@H](N)[C@@H](O)[C@@H]1O | % | 27 |
| NC[C@@H]1O[C@H](O[C@H]2[C@@H](O)[C@H](O[C@@H]3[C@@H](O)[C@H](N)C[C@H](N)[C@H]3O[C@H]3O[C@H](CN)[C@@H](O)[C@H](O)[C@H]3N)O[C@@H]2CNC(=O)CCc2ccc3ccc4cccc5ccc2c3c45)[C@H](N)[C@@H](O)[C@@H]1O | % | 14 |

* * *

Tested on: Escherichia coli
EXPERIMENTAL_DETAILS: Antibacterial activity against multidrug-resistant Escherichia coli H4H at 6.25 uM after 15 to 20 hrs by CLSI protocol based microdilution assay relative to control
Assay type: functional
Active and inactive are the calls of the source. The calls are words filed in the database; no cut-off is given here.

| SMILES_TEXT | SYSTEM_UNDER_TEST | Activity |
| --- | --- | --- |
| NC[C@@H]1O[C@H](O[C@H]2[C@@H](O)[C@H](O[C@@H]3[C@@H](O)[C@H](N)C[C@H](N)[C@H]3O[C@H]3O[C@H](CN)[C@@H](O)[C@H](O)[C@H]3N)O[C@@H]2CSCCNC(=O)CCCc2ccc3ccc4cccc5ccc2c3c45)[C@H](N)[C@@H](O)[C@@H]1O | Escherichia coli | <=30% |
| NC[C@@H]1O[C@H](O[C@H]2[C@@H](O)[C@H](O[C@@H]3[C@@H](O)[C@H](N)C[C@H](N)[C@H]3O[C@H]3O[C@H](CN)[C@@H](O)[C@H](O)[C@H]3N)O[C@@H]2CNC(=O)CCc2ccc3ccc4cccc5ccc2c3c45)[C@H](N)[C@@H](O)[C@@H]1O | Escherichia coli | inactive |
| NC[C@@H]1O[C@H](O[C@H]2[C@@H](O)[C@H](O[C@@H]3[C@@H](O)[C@H](N)C[C@H](N)[C@H]3O[C@H]3O[C@H](CN)[C@@H](O)[C@H](O)[C@H]3N)O[C@@H]2CNC(=O)Cc2ccc3ccc4cccc5ccc2c3c45)[C@H](N)[C@@H](O)[C@@H]1O | Escherichia coli | inactive |
| NC[C@@H]1O[C@H](O[C@H]2[C@@H](O)[C@H](O[C@@H]3[C@@H](O)[C@H](N)C[C@H](N)[C@H]3O[C@H]3O[C@H](CN)[C@@H](O)[C@H](O)[C@H]3N)O[C@@H]2CSCCNC(=S)NCCCCCCNC(=O)CCCc2ccc3ccc4cccc5ccc2c3c45)[C@H](N)[C@@H](O)[C@@H]1O | Escherichia coli | 5 - 30% |
| NC[C@@H]1O[C@H](O[C@H]2[C@@H](O)[C@H](O[C@@H]3[C@@H](O)[C@H](N)C[C@H](N)[C@H]3O[C@H]3O[C@H](CN)[C@@H](O)[C@H](O)[C@H]3N)O[C@@H]2CNC(=O)CCCc2ccc3ccc4cccc5ccc2c3c45)[C@H](N)[C@@H](O)[C@@H]1O | Escherichia coli | 0% |
| NC[C@@H]1O[C@H](O[C@H]2[C@@H](O)[C@H](O[C@@H]3[C@@H](O)[C@H](N)C[C@H](N)[C@H]3O[C@H]3O[C@H](CN)[C@@H](O)[C@H](O)[C@H]3N)O[C@@H]2CSCCNC(=O)CCc2ccc3ccc4cccc5ccc2c3c45)[C@H](N)[C@@H](O)[C@@H]1O | Escherichia coli | inactive |

These data points were gathered from ChEMBL document CHEMBL4330087.
